Procedure Details: folding enthalpy; higher = less favourable; fluorescence melt of hairpins on a sequencing array, two-state fit
Stated Conditions: sodium 0.088 M
Classes (folding enthalpy): c1: < -30 kcal/mol; c2: ≥ -30 kcal/mol and < -20 kcal/mol; c3: ≥ -20 kcal/mol

Lab note: which band did GTACATGGAAACATGTGC (.(((((....))))).) land in? c2

====

The following sequences are shown together with reported folding enthalpy values.
Procedure Details: folding enthalpy; higher = less favourable; fluorescence melt of hairpins on a sequencing array, two-state fit
Stated Conditions: sodium 0.088 M
Reply with just the number (in kcal/mol).

| Biopolymer Sequence | Experimental Result |
| --- | --- |
| GTTTGCGAAAGCATGAAC ((((((....)))..))) | -8.14 |

Endpoint output: folding enthalpy of GTATGAGGAAACTCGTAC (((.(((....))).))) . Value? -33.4

Quick one: folding enthalpy of GAAATCGGAAACGGTTTC ((((.((....)).)))) ? -31.6

====

Procedure Details: folding enthalpy; higher = less favourable; fluorescence melt of hairpins on a sequencing array, two-state fit
Stated Conditions: sodium 0.088 M
Observation Type: folding enthalpy (kcal/mol)
Please state the figure in kcal/mol; there is no need to write the unit.

| Biopolymer Sequence | Unit String | Experimental Result |
| --- | --- | --- |
| GATCACTCCTGTGATC ((((((....)))))) | kcal/mol | -33.9 |
| GCCTGTGGAAACGTAGGC ((((..(....)..)))) | kcal/mol | -28 |
| GTTTGCGAAAGCACAAAC ((((((....)))..))) | kcal/mol | -12.3 |

Would you mind telling me what folding enthalpy value was observed for GTGATGACGAAAGTCCAC (((..(((....)))))) ? -18.4

May I ask what folding enthalpy has been recorded for GGACTGTCGAAAGACTCC (((..(((....)))))) ? -5.54

Need folding enthalpy, item GATCACCACCGTGATC ((((((....)))))) -37.3

====

Recorded folding enthalpy, one value per entry.
Procedure Details: folding enthalpy; higher = less favourable; fluorescence melt of hairpins on a sequencing array, two-state fit
Stated Conditions: sodium 0.088 M
Reply numerically in kcal/mol, unit not repeated.

| Biopolymer Sequence | Observation Type | Experimental Result |
| --- | --- | --- |
| GATCCTCTTCAGGATC ((((((....)))))) | folding enthalpy | -38.2 |
| GATCATTAGCATGATC ((((((....)))))) | folding enthalpy | -32.6 |
| GCTCGGCGAAAGCCAGGC ((..(((....)))..)) | folding enthalpy | -12.6 |
| GAGGCTGGAAACAACCTC ((((.((....)).)))) | folding enthalpy | -29.2 |
| GCCTACGAAAGTAGCGGC ((((((....)))..))) | folding enthalpy | -19.5 |
| GTGCCTCGAAAGAGCAC (((.(((....)))))) | folding enthalpy | -28.5 |
| GGGGGCGGAAACGCCCTC (.(((((....))))).) | folding enthalpy | -11.6 |
| GACGACGAAAGTCCCGTC ((((((....)))..))) | folding enthalpy | -16.6 |

If you can, please state the reported folding enthalpy value of GTTTGCCGAAAGGCGAAC (((.(((....))).))) . -28.3

// folding enthalpy lookup, key: CGTGCCGGAAACGGTACG (((.(((....))).))) -32.4

Quick check: folding enthalpy of GGCAAGGGAAACCTTGTC (.(((((....))))).) ? -31.7

What measured folding enthalpy goes with GCATACGAAAGTATGC ((((((....)))))) ? -35.3

Return reported folding enthalpy; argument: GGCCGCGGAAACGCAGCC (((.(((....))).))) -38.1

Could you share which folding enthalpy value was measured for CGACCGGAAACGGAATCG ((((((....)))..))) ? -14.3

Record request: folding enthalpy value, item GATCACACGGTGATC ((((((...)))))) -37.5

What value of folding enthalpy has been recorded for this entry: GGCATACGAAAGTAAGCC (((.(((....))).))) -37.1
